Give IC50 for every item shown.
test system: C8166; assay: Cytotoxicity against human C8166 cells assessed as reduction in cell viability; type: functional, cell-based
The reply should be a number in µg/mL, with the unit left off.

Exercise: Field request: IC50 | item: COc1ccc2c(c1)CCCN2CCC(=O)N1CCN(c2ccccc2C)CC1
Key: 114

Exercise: Dear colleague, I am looking for the recorded IC50 of the following molecule: Cc1cn([C@H]2C[C@H](N=[N+]=[N-])[C@@H](CO)O2)c(=O)[nH]c1=O [ZIDOVUDINE]
Key: 1570

Exercise: What does the data say about its IC50? Entry: COc1ccc2c(c1)CCCN2CCC(=O)N1CCN(c2cccc(Cl)c2)CC1
Key: 97.5

Exercise: Requested field: IC50. Item: COc1ccc2c(c1)CCCN2CCC(=O)N1CCN(c2ccccc2)CC1
Key: 83.2

Entry source: ChEMBL document CHEMBL4402520
